For each of the molecules below, state its inhibition.
biological target: Cannabinoid receptor 2 (Homo sapiens) (UniProt P34972); assay: Displacement of [3H]WIN-55,212-2 from human recombinant CB2 receptor expressed in CHO-K1 cells at 10 uM relative to control; assay type: cell-based
Sequence (P34972 whole entry): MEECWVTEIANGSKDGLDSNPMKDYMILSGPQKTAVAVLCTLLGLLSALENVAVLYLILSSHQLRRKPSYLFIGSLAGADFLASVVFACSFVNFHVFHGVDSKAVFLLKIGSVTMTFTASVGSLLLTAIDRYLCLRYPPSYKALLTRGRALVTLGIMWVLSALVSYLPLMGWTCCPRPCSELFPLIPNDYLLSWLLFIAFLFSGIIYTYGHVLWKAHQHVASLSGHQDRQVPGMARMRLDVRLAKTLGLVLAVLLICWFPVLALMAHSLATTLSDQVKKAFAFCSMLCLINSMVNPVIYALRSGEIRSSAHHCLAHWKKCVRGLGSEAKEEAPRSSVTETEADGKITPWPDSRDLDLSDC
One number for each entry, in %.

Some solved cases for reference:
CCCCCCCC/C=C/CCCCCCCC(=O)N[C@@H](CO)C(C)C
0
CCCCCCCCCCCCCCCC(=O)N[C@H](CO)C(C)C
0
CCCCCCCC/C=C\CCCCCCCC(=O)N[C@@H](CO)C(C)C
5
CCCCCCCCCCCCCCCCCC(=O)N[C@H](CO)C(C)C
6
CCCCCCCC/C=C/CCCCCCCC(=O)N[C@H](CO)C(C)C
5

// next entry
INPUT: Item `CCCCCCCC/C=C\CCCCCCCC(=O)N[C@H](CO)C(C)C` : provide inhibition
OUTPUT: 18

###

test system: Mus musculus; assay: Antiobesity activity in Sabra mouse assessed as change in body weight at 1 mg/kg, ip administered on day 8, 9, 10, 11, 14, 18, 24 and 32 measured on day 25 relative to control; type: functional; settings: route intraperitoneal
For each of the compounds below, state its Activity.
Remember to quote the unit after the number.

CCCCCCCC/C=C\CCCCCCCC(=O)N[C@H](CO)C(C)C
-5%
CCCCCCCC/C=C/CCCCCCCC(=O)N[C@H](CO)C(C)C
0.7%
CCCCCCCC/C=C\CCCCCCCC(=O)N[C@@H](CO)C(C)C
-3.3%
CCCCCCCC/C=C/CCCCCCCC(=O)N[C@@H](CO)C(C)C
-1.1%
CCCCCCCCCCCCCCCCCC(=O)N[C@H](CO)C(C)C
-5.3%

// next entry
INPUT: Provide Mus musculus Activity reading for `CCCCCCCCCCCCCCCC(=O)N[C@H](CO)C(C)C` .
OUTPUT: -4.9%

###

tested on: Mus musculus; test: Antiobesity activity in Sabra mouse assessed as reduction in body weight at 1 mg/kg, ip administered on day 0, 10, 11, 12, 24, 29 measured on day 22 relative to control; type: functional; set-up: scale not given: the % may be the effect or the level left; conditions: route intraperitoneal
measuredProperty: Activity (%)
Answers are plain numbers, in %.

Some solved cases for reference:
CCCCCCCC/C=C\CCCCCCCC(=O)NCCO [OLEOYLETHANOLAMIDE]
-1.17
CCCCCCCC/C=C\CCCCCCCC(=O)N[C@@H](C)CO
-2.24
CCCCCCCC/C=C\CCCCCCCC(=O)N(C)CCO
-0.48

// next entry
INPUT: Item `CCCCCCCC/C=C\CCCCCCCC(=O)N[C@H](CO)C(C)C` : provide Activity
OUTPUT: -3.06

###

target: Peroxisome proliferator-activated receptor alpha (Homo sapiens); test: Binding affinity to human recombinant PPARalpha expressed in Escherichia coli at 10 uM for 16 hrs by spectrofluorimetric analysis relative to control
For each of the compounds below, state its Activity.
Answers are plain numbers, in %.

Some solved cases for reference:
CCCCCCCCCCCCCCCCCC(=O)N[C@H](CO)C(C)C
0
CCCCCCCC/C=C\CCCCCCCC(=O)N[C@@H](CO)C(C)C
0
CCCCCCCC/C=C\CCCCCCCC(=O)N[C@H](CO)C(C)C
2
CCCCCCCC/C=C/CCCCCCCC(=O)N[C@H](CO)C(C)C
0
CCCCCCCC/C=C/CCCCCCCC(=O)N[C@@H](CO)C(C)C
0

INPUT: Item `CCCCCCCCCCCCCCCC(=O)N[C@H](CO)C(C)C` : provide Activity
OUTPUT: 2
